Below, each entry is listed alongside its reported Kd.
target: T1, recombinant human ROR1 extracellular domain (human, UniProt Q01973 30-406); experiment: ELISA, soluble Fab on coated huROR1-ECD
T1 construct: biotinylated for the filter lifts; also called huROR1-ECD; human ROR1-ECD
T1 sequence (Q01973 30-406 limits assumed): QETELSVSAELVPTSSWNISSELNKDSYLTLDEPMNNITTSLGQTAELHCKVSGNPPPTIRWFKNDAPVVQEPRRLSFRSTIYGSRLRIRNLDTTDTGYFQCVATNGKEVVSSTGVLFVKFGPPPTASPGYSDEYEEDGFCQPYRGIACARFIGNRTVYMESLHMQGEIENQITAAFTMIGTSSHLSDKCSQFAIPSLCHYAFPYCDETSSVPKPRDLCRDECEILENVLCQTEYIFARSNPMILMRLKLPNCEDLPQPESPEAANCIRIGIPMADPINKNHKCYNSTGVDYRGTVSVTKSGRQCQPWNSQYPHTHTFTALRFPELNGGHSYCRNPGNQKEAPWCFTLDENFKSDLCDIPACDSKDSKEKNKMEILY
The reply should contain only the number, in nM.

For orientation, consider the following solved cases.
- Ab1 Fab variant H2 S69E (Fab, V domains shown, Fab) VH: QVQLQESGPGLVKPSQTLSLTCTVSGYAFTAYNIHWVRQAPGQGLEWMGSFDPYDGGSEYNQKFKDRLTISKDTSKNQVVLTMTNMDPVDTATYYCARGWYYFDYWGHGTLVTVSS VL: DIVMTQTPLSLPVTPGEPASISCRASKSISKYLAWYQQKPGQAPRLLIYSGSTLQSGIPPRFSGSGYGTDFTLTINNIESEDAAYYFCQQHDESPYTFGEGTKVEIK: 1.2
- Ab1 Fab variant L2 S68R (Fab, V domains shown, Fab; also called SGRTLQS) VH: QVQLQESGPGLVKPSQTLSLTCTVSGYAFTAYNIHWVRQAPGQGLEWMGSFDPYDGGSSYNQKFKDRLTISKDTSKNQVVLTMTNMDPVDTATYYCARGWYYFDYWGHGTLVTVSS VL: DIVMTQTPLSLPVTPGEPASISCRASKSISKYLAWYQQKPGQAPRLLIYSGRTLQSGIPPRFSGSGYGTDFTLTINNIESEDAAYYFCQQHDESPYTFGEGTKVEIK: 11
- Ab1 Fab variant H2 D65E (Fab, V domains shown, Fab) VH: QVQLQESGPGLVKPSQTLSLTCTVSGYAFTAYNIHWVRQAPGQGLEWMGSFDPYEGGSSYNQKFKDRLTISKDTSKNQVVLTMTNMDPVDTATYYCARGWYYFDYWGHGTLVTVSS VL: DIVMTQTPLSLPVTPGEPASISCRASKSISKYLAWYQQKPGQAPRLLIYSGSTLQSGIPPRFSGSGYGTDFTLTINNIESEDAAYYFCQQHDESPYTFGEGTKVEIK: 4.9
- Ab1 Fab variant L1 S30F (Fab, V domains shown, Fab) VH: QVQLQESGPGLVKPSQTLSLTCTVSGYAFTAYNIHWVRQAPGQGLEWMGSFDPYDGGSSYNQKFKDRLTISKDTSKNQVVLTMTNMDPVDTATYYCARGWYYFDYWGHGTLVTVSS VL: DIVMTQTPLSLPVTPGEPASISCRASKFISKYLAWYQQKPGQAPRLLIYSGSTLQSGIPPRFSGSGYGTDFTLTINNIESEDAAYYFCQQHDESPYTFGEGTKVEIK: 18

Now for the binder whose Kd we want.
Incoming: Provide Kd value for the following binder: Ab1 Fab variant L2 L70H (Fab, V domains shown, Fab; also called SGSTHQS) VH: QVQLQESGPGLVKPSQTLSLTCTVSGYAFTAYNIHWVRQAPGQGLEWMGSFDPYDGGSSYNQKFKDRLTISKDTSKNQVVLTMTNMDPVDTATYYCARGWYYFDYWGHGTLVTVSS VL: DIVMTQTPLSLPVTPGEPASISCRASKSISKYLAWYQQKPGQAPRLLIYSGSTHQSGIPPRFSGSGYGTDFTLTINNIESEDAAYYFCQQHDESPYTFGEGTKVEIK
Outgoing: 2.3
